Entries and their normalised viability
System: HDQ-P1
Method Description: normalised viability (% of control), CellTiter-Blue; higher = more viable cells (about 100 = DMSO control)
Condition Context: 100 nM; incubation time: 72 h
Readout: normalised viability (%)

>>> test_result("CN(Cc1cnc2nc(N)nc(N)c2n1)c1ccc(C(=O)N[C@@H](CCC(=O)O)C(=O)O)cc1 [Methotrexate]")
96
>>> test_result("Cn1cc(C2=C(c3cn(C4CCN(Cc5ccccn5)CC4)c4ccccc34)C(=O)NC2=O)c2ccccc21 [Enzastaurin]")
89.3
>>> test_result("CC(C)C[C@H](NC(=O)[C@@H](COC(C)(C)C)NC(=O)[C@H](Cc1ccc(O)cc1)NC(=O)[C@H](CO)NC(=O)[C@H](Cc1c[nH]c2ccccc12)NC(=O)[C@H](Cc1cnc[nH]1)NC(=O)[C@@H]1CCC(=O)N1)C(=O)N[C@@H](CCCNC(=N)N)C(=O)N1CCC[C@H]1C(=O)NNC(N)=O [Goserelin]")
103
>>> test_result("CO[C@@]12[C@H](COC(N)=O)C3=C(C(=O)C(C)=C(N)C3=O)N1C[C@@H]1N[C@@H]12 [Mitomycin C]")
104
>>> test_result("CC1(C)CCC(c2ccc(Cl)cc2)=C(CN2CCN(c3ccc(C(=O)NS(=O)(=O)c4ccc(N[C@H](CCN5CCOCC5)CSc5ccccc5)c(S(=O)(=O)C(F)(F)F)c4)cc3)CC2)C1 [Navitoclax]")
79.3
>>> test_result("CC(C)(C)NC(=O)[C@H]1CC[C@H]2[C@@H]3CC[C@H]4NC(=O)C=C[C@]4(C)[C@H]3CC[C@]12C [Finasteride]")
130

---

System: HCC1599
Method Description: normalised response (% of control), CellTiter-Glo; higher = more viable cells (100 = DMSO, 0 = benzethonium chloride kill control)
Condition Context: incubation time: 72 h
// normalised response lookup, one value per entry
Readout: normalised response (%)

>>> test_result("Nc1ccn([C@@H]2O[C@H](CO)[C@@H](O)C2(F)F)c(=O)n1 [Gemcitabine] (1000 nM)")
41.4
>>> test_result("COc1ccc(S(=O)(=O)Nc2cccnc2Nc2ccc(O)cc2)cc1 [ABT-751] (10000 nM)")
16.5
>>> test_result("CCn1c(C(=O)N(C2CC2)C2CC2)cc2c3c(ncn3C)c(Nc3cc(C)n(C)n3)nc21 (10000 nM)")
123
>>> test_result("CC(C)(C)c1nc(-c2cccc(NS(=O)(=O)c3c(F)cccc3F)c2F)c(-c2ccnc(N)n2)s1 [Dabrafenib] (2500 nM)")
89.4
>>> test_result("CN[C@@H](C)C(=O)N[C@H]1CN(C(=O)CC(C)C)CC[C@H]2CC[C@@H](C(=O)NC(c3ccccc3)c3ccccc3)N2C1=O [AT-406] (10000 nM)")
97.5
>>> test_result("CC[C@H](CO)Nc1nc(NCc2ccccc2)c2ncn(C(C)C)c2n1 [Seliciclib] (10000 nM)")
95.9
>>> test_result("CCNC(=O)CCC/C=C\\C[C@@H]1[C@@H](/C=C/[C@@H](O)CCc2ccccc2)[C@H](O)C[C@@H]1O [Bimatoprost] (5500 nM)")
89.5

---

Tested on: HCC1937
Method Description: normalised viability (% of control), CellTiter-Blue; higher = more viable cells (about 100 = DMSO control)
Condition Context: 1000 nM; incubation time: 72 h
# 1 = normalised viability below 90% (exclusive); -1 = normalised viability at/above 90%

>>> classification("C=CCN(/C=C1/C(=O)O[C@H](COC)[C@@]2(C)C1=C(O)C(=O)C1=C2[C@H](OC(C)=O)C[C@]2(C)C(=O)CC[C@@H]12)CC=C")
1
>>> classification("CC[C@H](CO)Nc1nc(NCc2ccccc2)c2ncn(C(C)C)c2n1")
-1
>>> classification("CC(C)(C)NC(=O)[C@H]1CC[C@H]2[C@@H]3CC[C@H]4NC(=O)C=C[C@]4(C)[C@H]3CC[C@]12C [Finasteride]")
-1
>>> classification("CC1(C)CCC(c2ccc(Cl)cc2)=C(CN2CCN(c3ccc(C(=O)NS(=O)(=O)c4ccc(N[C@H](CCN5CCOCC5)CSc5ccccc5)c(S(=O)(=O)C(F)(F)F)c4)cc3)CC2)C1")
1
>>> classification("COc1cc(Nc2c(C#N)cnc3cc(OCCCN4CCN(C)CC4)c(OC)cc23)c(Cl)cc1Cl")
1
>>> classification("CO[C@@]12[C@H](COC(N)=O)C3=C(C(=O)C(C)=C(N)C3=O)N1C[C@@H]1N[C@@H]12")
1
